Listed here: items and their measured Potency.
Test: Acumen qHTS Assay for Inhibitors of the mTORC1 Signaling Pathway in MEF (Tsc2-/-, p53-/-) Cells: Hit Validation;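 also: phospho-rpS6 Ser235/236 immunofluorescence normalized to propidium iodide cell count; nearly all actives have a fitted effect of over 65% in size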; also: potency is read from the fitted curve at half-maximal effect
Details: Acumen imaging
Records with an inconclusive call do not appear. Activity calls are given as the source filed them. Calls follow the shape of the dose curve; as a rule, active = well fitted inhibition curve with a large enough effect; inconclusive = small, poorly fitted or top-dose-only effect; inactive = no such curve, though single readings can be large or run the other way.

[
  {
    "COMPOUND": "Cc1ccc(CN2C(=O)C(=O)c3cc(Br)cc(C)c32)cc1",
    "Potency": "9.27 µM (active)"
  },
  {
    "COMPOUND": "CCCCOc1cccc(C(=O)N(Cc2cccs2)c2ccc(OC)cc2)c1",
    "Potency": "16.5 µM (active)"
  },
  {
    "COMPOUND": "Cc1cccc(N2CCN(c3ncnc4c3nc3n4CCCCC3)CC2C)c1 (configuration not stated)",
    "Potency": "3.29 µM (active)"
  },
  {
    "COMPOUND": "CCCN(CCC)CCCNC(=O)C1CCN(c2nc3ccc(CC)cc3s2)CC1",
    "Potency": "11.7 µM (active)"
  },
  {
    "COMPOUND": "Cn1ccc2c(OCC(=O)Nc3ccc(OC(F)(F)F)cc3)cccc2c1=O",
    "Potency": "16.5 µM (active)"
  },
  {
    "COMPOUND": "CC(C)CCNC(=O)C(=O)Nc1c2c(nn1-c1ccc(Cl)cc1)CSC2",
    "Potency": "5.85 µM (active)"
  },
  {
    "COMPOUND": "Cc1cccc(C)c1Nc1sc(C(=O)c2ccccc2)c(N)c1S(=O)(=O)c1ccccc1",
    "Potency": "2.61 µM (active)"
  },
  {
    "COMPOUND": "CCCC1=Nc2cc(C(=O)NCc3ccccc3)ccc2Sc2ccccc21",
    "Potency": "4.14 µM (active)"
  },
  {
    "COMPOUND": "Cc1ccc(OCC(O)Cn2c(=N)n(CCN3CCCCC3)c3ccccc32)cc1 (configuration not stated)",
    "Potency": "10.4 µM (active)"
  },
  {
    "COMPOUND": "Cc1ccc(C)c(N2CCN(CCCNC(=O)c3nnc(Cc4ccc(F)cc4Cl)o3)CC2)c1",
    "Potency": "10.4 µM (active)"
  },
  {
    "COMPOUND": "COc1ccc(OCC(=O)NCc2ccc3c(c2)CCN3C(=O)c2ccccc2)cc1",
    "Potency": "16.5 µM (active)"
  },
  {
    "COMPOUND": "COc1cc(Cl)c(C)cc1Nc1c2c(nc3ccccc13)CCC2",
    "Potency": "0.927 µM (active)"
  },
  {
    "COMPOUND": "CCSc1ccccc1C(=O)Nc1ccc(-c2nc3ccccc3s2)c(O)c1",
    "Potency": "13.1 µM (active)"
  },
  {
    "COMPOUND": "CCCN(c1ccccc1CC)S(=O)(=O)c1ccc2c(c1)CC(C)N2C(=O)C1CC1 (configuration not stated)",
    "Potency": "0.521 µM (active)"
  },
  {
    "COMPOUND": "CCOc1cc(-c2nnc(SCC(=O)NCc3ccccc3)nc2-c2ccc(OC)c(OCC)c2)ccc1OC",
    "Potency": "2.07 µM (active)"
  },
  {
    "COMPOUND": "Cc1nc2nncn2c(NCc2ccc(Cl)cc2)c1C",
    "Potency": "4.14 µM (active)"
  },
  {
    "COMPOUND": "CN1CCN(C2(CNC(=O)COc3ccc(C(C)(C)C)cc3)CCCCC2)CC1",
    "Potency": "14.7 µM (active)"
  },
  {
    "COMPOUND": "CCOCc1cc(CN2CCN(c3ccccc3OC)CC2)c(O)c2ncccc12",
    "Potency": "5.21 µM (active)"
  },
  {
    "COMPOUND": "COc1ccc(Nc2cc(C)nc(-n3nc(C)cc3C)n2)cc1Cl",
    "Potency": "0.147 µM (active)"
  },
  {
    "COMPOUND": "CC(=O)C1=C(c2ccccc2)N(C(C)=O)n2c(nnc2C2CCCCC2)S1",
    "Potency": "7.36 µM (active)"
  },
  {
    "COMPOUND": "CCS(=O)(=O)c1oc(-c2ccc(F)cc2)nc1S(=O)(=O)c1ccccc1",
    "Potency": "0.369 µM (active)"
  },
  {
    "COMPOUND": "CCCCN(C)CC(O)Cn1cc(/C=C/C(=O)c2ccc(C)cc2)c2ccccc21 (configuration not stated)",
    "Potency": "13.1 µM (active)"
  }
]

###

Experiment: Acumen qHTS Assay for Inhibitors of the mTORC1 Signaling Pathway in MEF (Tsc2-/-, p53-/-) Cells: Hit Validation;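 also: phospho-rpS6 Ser235/236 immunofluorescence normalized to propidium iodide cell count; nearly all actives have a fitted effect of over 65% in size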;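 as to activity change, negative = inhibition: cells exposed to compound for 24 hours; plate controls were DMSO for no effect and 7.5 nM rapamycin control for full effect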
Conditions: Acumen imaging; at 37.3 µM (top of the series)
Results filed as inconclusive are left out.
METRIC_NAME: activity change, negative = inhibition (%)

[
  {
    "MOLECULE": "CCCCN(CC)CCNC(=O)C1CCN(c2nnc(C)c3c(C)n(-c4ccc(C)cc4)nc23)CC1",
    "UNITS_TEXT": "%",
    "ENDPOINT_RESULT": -14.5
  },
  {
    "MOLECULE": "Cc1nn(CCCC(=O)NCc2cccc(Cl)c2)c(=O)c2c1sc1ccccc12",
    "UNITS_TEXT": "%",
    "ENDPOINT_RESULT": -2.73
  },
  {
    "MOLECULE": "CCCCS(=O)(=O)c1oc(-c2ccc(F)cc2)nc1S(=O)(=O)c1ccccc1",
    "UNITS_TEXT": "%",
    "ENDPOINT_RESULT": -151
  },
  {
    "MOLECULE": "Cn1nnnc1SCCCNCc1ccccc1OCc1ccc(Cl)cc1",
    "UNITS_TEXT": "%",
    "ENDPOINT_RESULT": -60
  },
  {
    "MOLECULE": "CCN1CCOC(=O)C1CC(=O)Nc1cccc(OC)c1 (stereo unspecified)",
    "UNITS_TEXT": "%",
    "ENDPOINT_RESULT": -21.3
  },
  {
    "MOLECULE": "Cc1nc2nncn2c(NCc2ccc(F)cc2)c1C",
    "UNITS_TEXT": "%",
    "ENDPOINT_RESULT": -42.2
  },
  {
    "MOLECULE": "O=C(Nc1ccc(Cl)cc1)c1cc(S(=O)(=O)N2CCCc3ccccc32)ccc1F",
    "UNITS_TEXT": "%",
    "ENDPOINT_RESULT": -18.3
  },
  {
    "MOLECULE": "CCN(C(=O)C(NS(=O)(=O)c1ccc(Br)s1)c1ccccc1)c1ccc(C)c(C)c1 (stereo unspecified)",
    "UNITS_TEXT": "%",
    "ENDPOINT_RESULT": -46.3
  },
  {
    "MOLECULE": "CCc1ccc(S(=O)(=O)c2nnn(-c3ccc(F)cc3)c2N)cc1",
    "UNITS_TEXT": "%",
    "ENDPOINT_RESULT": -3.55
  },
  {
    "MOLECULE": "O=C(NCCN1CCN(c2cccc(Cl)c2)CC1)Nc1ccccc1C(F)(F)F",
    "UNITS_TEXT": "%",
    "ENDPOINT_RESULT": -3.27
  },
  {
    "MOLECULE": "COc1cccc(-c2oc3ccc(C)cc3c(=O)c2O)c1",
    "UNITS_TEXT": "%",
    "ENDPOINT_RESULT": -44.4
  }
]

###

Listed here: items and their measured activity change, negative = inhibition.
Assay: Acumen qHTS Assay for Inhibitors of the mTORC1 Signaling Pathway in MEF (Tsc2-/-, p53-/-) Cells: Hit Validation;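 also: phospho-rpS6 Ser235/236 immunofluorescence normalized to propidium iodide cell count; nearly all actives have a fitted effect of over 65% in size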;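 as to activity change, negative = inhibition: cells exposed to compound for 24 hours; plate controls were DMSO for no effect and 7.5 nM rapamycin control for full effect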
Settings: Acumen imaging; at 37.3 µM (top of the series)
Inconclusive results are not listed.

[
  {
    "MOLECULE": "Cc1nn(C(C)C(=O)NC2CCCCC2)c(=O)c2c1sc1ccccc12 (stereo not given)",
    "UNITS_TEXT": "%",
    "activity change, negative = inhibition": -2.94
  },
  {
    "MOLECULE": "Cc1cc(C)c(-c2n[nH]c3c2C(c2ccccc2F)N(Cc2ccco2)C3=O)c(O)c1 (stereo not given)",
    "UNITS_TEXT": "%",
    "activity change, negative = inhibition": 2.41
  },
  {
    "MOLECULE": "CCN1CCC(N(Cc2ccc(F)cc2)C(=O)Nc2ccc(C)c(F)c2)CC1",
    "UNITS_TEXT": "%",
    "activity change, negative = inhibition": 5.5
  },
  {
    "MOLECULE": "Cc1cccc(CS(=O)(=O)c2ncc(Cl)c(C(=O)NCc3ccccc3)n2)c1",
    "UNITS_TEXT": "%",
    "activity change, negative = inhibition": -111
  },
  {
    "MOLECULE": "CCCCOc1ccc(Cn2c(=O)sc3ccccc32)cc1",
    "UNITS_TEXT": "%",
    "activity change, negative = inhibition": -17
  },
  {
    "MOLECULE": "Cc1nn(C(C)C(=O)NC2CCC(C)CC2)c(=O)c2c1sc1ccccc12 (stereo not given)",
    "UNITS_TEXT": "%",
    "activity change, negative = inhibition": -5.69
  },
  {
    "MOLECULE": "Cc1ccc(NC(=O)CSc2nc(=O)cc(N)n2CCc2ccccc2)cc1",
    "UNITS_TEXT": "%",
    "activity change, negative = inhibition": -30
  },
  {
    "MOLECULE": "COc1ccc(-c2ccc(CCC(=O)O)n2-c2cc(Cl)ccc2O)cc1",
    "UNITS_TEXT": "%",
    "activity change, negative = inhibition": -7.48
  },
  {
    "MOLECULE": "Cc1cccc(OCc2ccc(-c3nc(C#N)c(NCCN(C)C)o3)o2)c1",
    "UNITS_TEXT": "%",
    "activity change, negative = inhibition": 0.2
  },
  {
    "MOLECULE": "CCCCN(C)CCNC(=O)C1CCN(c2nc3ccc(CC)cc3s2)CC1",
    "UNITS_TEXT": "%",
    "activity change, negative = inhibition": -90.7
  }
]

Data origin, for the record: PubChem BioAssay AID651784
